Data provenance is PubChem BioAssay (NCI).

Overview of recorded log10(TGI) for various compounds
# Test system: SK-MEL-28 melanoma
# assay remarks: NCI tumour cell line growth inhibition, 48 h
reported property: log10(TGI) (log10 of the value in µM)

                                   compound        assay_system  reported_property  measured_value
0  O=S(=O)(NCCNc1cc(-c2cn(-c3ccccc3)nc2-c2cccc(O)c2)ccn1)c1ccc(Br)cc1  SK-MEL-28 melanoma         log10(TGI)            0.68
1  COc1ccc(C(=O)c2cc(C)c(OC)c(C)c2)c(OC)c1N(C(=O)CCl)C(=O)CCl  SK-MEL-28 melanoma         log10(TGI)            1.40
2  COc1ccc2c(c1OC)C(C=C(c1ccccc1)c1ccccc1)CN(C)C2 (stereo not given)  SK-MEL-28 melanoma         log10(TGI)            1.76
3  CCCc1n(Cc2ccc3ccccc3n2)cc[n+]1Cc1ccc2ccccc2c1  SK-MEL-28 melanoma         log10(TGI)            0.79
4                     CCCCCCCCCC[N+](C)(C)C  SK-MEL-28 melanoma         log10(TGI)            1.09
